B1: MBOAT1 peptide 17-32 (Lysophospholipid acyltransferase 1), 16-mer library wild type / NSP3 ADRP (ORF1ab Nsp3b ADRP, residues 1023-1192) (parent)
chain 1: STYLHPLSELLGIPLD
chain 2: not shown

Variants of: B1
particulars: with NSP3 ADRP (ORF1ab Nsp3b ADRP, residues 1023-1192); bait immobilised on MaxiSorp plates (10 µg), library pre-cleared on GST, 2 h binding at 4 °C, five washes; one round per day, days 1-4; value from days 2 and 3; keep out of graded; scale: average fractional NGS count over selection days 2 and 3
observed-property: screen value
Please respond with just the number, no unit label.

> print(dat)
   variant.label  value.reported
1    chain 1 L4E               0

chain 1 H5Q yielded screen value of 0

Per the records, this variant ( chain 1 E9G ) has screen value equal to 0

Just so you know, measured screen value for chain 1 H5L came out at 0
